# measurement-protocol: in vitro
# reported-conditions: human, Caco-2, pH 7.4
measured-property: Papp B→A

1. COc1cc(-c2cncc(-c3ccc(N4C[C@@H](C)N(C)[C@@H](C)C4)cc3)c2C)cc(OC)c1C(N)=O [Compound 26f]	12.6 ×10⁻⁶ cm/s

====

So I've got pIC50 readings for ALK5, take a look.
pIC50: −log10 of the molar value.
measured-property: pIC50

1) Cc1c(-c2ccc(C(N)=O)cc2)cncc1-c1ccc(N2CCNCC2)cc1 [Compound 20b]	< 5.30
2) Cc1c(-c2ccc(N3CCNCC3)cc2)cncc1-c1ccc2c(c1)CNC2=O [Compound 20a]	< 5.30
3) CNC(=O)c1ccc(-c2cncc(-c3ccc(N4CCNCC4)cc3)c2C)cc1OC	< 5.30
4) COc1cc(-c2cncc(-c3ccc(N4CCNCC4)cc3)c2C)sc1C(N)=O	< 5.30
5) COc1c(C(N)=O)csc1-c1cncc(-c2ccc(N3CCNCC3)cc2)c1C	< 5.30
